Experiment: Dynamic solubility test in biological media and water
Format: physicochemical
Conditions: thermodynamic from solid; Water, 0.5 h

>  <Compound>
CN1CCN(C2CCN(c3ccc(Nc4ncc5sc(C(=O)N(C)C)c(C6CCCC6)c5n4)nc3)CC2)CC1 [crystal form A]

>  <solubility at 0.5 h>
> 5540 µg/mL

$$$$

###

Test: Dynamic solubility test in biological media and water
Assay type: physicochemical
Conditions: thermodynamic from solid; Water, 24 h
Quantity Measured: solubility at 24 h

>  <Molecule>
CN1CCN(C2CCN(c3ccc(Nc4ncc5sc(C(=O)N(C)C)c(C6CCCC6)c5n4)nc3)CC2)CC1 [crystal form A]

>  <Quantity Measured>
solubility at 24 h

>  <Reported Result>
> 5480 µg/mL

$$$$
